- Assay Context: in ethyl acetate, 308.2 K
Property Name: solubility (mole fraction)
Numbers only.

Item C[C@@]12C[C@H]3OC(=O)[C@@H]1CO[C@]14O[C@@]5([C@H]2C1=O)[C@@]3(C)OC(=O)[C@@]5(O)CC[C@H]1[C@H]4C[C@@H](O)[C@@]2(O)CC=CC(=O)[C@]12C has what recorded solubility (mole fraction)?
0.0052

* * *

- Assay Context: in chloroform, 313.2 K
Property Name: solubility (mole fraction)
Answers are plain numbers.

Please report the recorded solubility (mole fraction) for C[C@@]12C[C@H]3OC(=O)[C@@H]1CO[C@]14O[C@@]5([C@H]2C1=O)[C@@]3(C)OC(=O)[C@@]5(O)CC[C@H]1[C@H]4C[C@@H](O)[C@@]2(O)CC=CC(=O)[C@]12C .
0.006

# credit: BigSolDB 2.1
